Field: koff. Provide a value for each of the binders that follow.
System tested: Macaca fascicularis IL-36R extracellular domain expressed with a C-terminal myc-myc-hexahistidine tag (Macaca fascicularis)
Experiment description: SPR Biacore T200, mAb captured by anti-hFc, 37C, PBS-T pH 6.0
Return type: number; implicit unit s⁻¹.

Note to self: koff recorded for H4H14700P2 (antibody, human IgG4 S228P, kappa, V domains shown) VH: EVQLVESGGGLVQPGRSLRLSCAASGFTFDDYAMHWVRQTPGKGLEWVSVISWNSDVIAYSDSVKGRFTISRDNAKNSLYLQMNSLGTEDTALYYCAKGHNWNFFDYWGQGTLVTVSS VL: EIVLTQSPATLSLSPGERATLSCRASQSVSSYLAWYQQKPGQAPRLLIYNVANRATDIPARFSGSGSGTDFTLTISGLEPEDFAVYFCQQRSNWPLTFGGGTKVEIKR was 0.00333

Note to self: koff recorded for H4H14728P (antibody, human IgG4 S228P, kappa, V domains shown) VH: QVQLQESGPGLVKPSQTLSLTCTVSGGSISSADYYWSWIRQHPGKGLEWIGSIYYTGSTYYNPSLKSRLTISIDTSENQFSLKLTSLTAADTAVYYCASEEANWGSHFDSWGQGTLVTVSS VL: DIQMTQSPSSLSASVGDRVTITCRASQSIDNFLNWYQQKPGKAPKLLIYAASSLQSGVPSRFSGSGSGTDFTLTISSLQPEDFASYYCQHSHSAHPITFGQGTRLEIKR was 0.00191

Note to self: koff recorded for H4H14731P (antibody, human IgG4 S228P, kappa, V domains shown) VH: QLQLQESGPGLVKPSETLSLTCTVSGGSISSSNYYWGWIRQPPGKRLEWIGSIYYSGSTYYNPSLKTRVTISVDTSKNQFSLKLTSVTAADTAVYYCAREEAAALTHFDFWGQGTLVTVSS VL: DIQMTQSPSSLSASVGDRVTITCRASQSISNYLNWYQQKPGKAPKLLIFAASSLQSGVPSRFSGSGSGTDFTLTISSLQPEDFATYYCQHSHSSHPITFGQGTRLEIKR was 0.00538

Note to self: koff recorded for H4H14708P2 (antibody, human IgG4 S228P, kappa, V domains shown) VH: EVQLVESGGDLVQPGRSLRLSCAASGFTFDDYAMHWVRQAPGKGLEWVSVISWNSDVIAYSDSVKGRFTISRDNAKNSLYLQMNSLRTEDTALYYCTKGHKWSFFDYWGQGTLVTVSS VL: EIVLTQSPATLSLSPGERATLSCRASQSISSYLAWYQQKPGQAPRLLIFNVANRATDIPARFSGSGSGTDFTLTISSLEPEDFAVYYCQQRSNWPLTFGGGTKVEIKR was 0.0031
